# Test system: K562
# experimentalDetails: NCI tumour cell line growth inhibition, 48 h
Active and inactive are the calls of the source. Cut-off read from the data, not from the text of the source: active = GI50 up to about 1.1 µM and inactive = higher.
parameter: GI50

Prompt: I'd like to know its GI50. The molecule in question is CCOc1ccc2nc(NC(=O)/C(CC(=O)CC(C3=C(O)c4ccccc4CC3=O)c3ccccc3)=N\O)sc2c1 (stereo not drawn)
Response: > 100 µM (inactive)

Prompt: GI50 for "Cn1c2ccccc2n2c3ncccc3c(=O)cc12" ?
Response: 78.3 µM (inactive)

Prompt: Using the record for O=C1CN2C(c3ccccc3)=NN(c3ccc([N+](=O)[O-])cc3)C2(c2ccccc2)c2cc(Cl)ccc2N1CC1CC1 (stereo not drawn) , report its GI50.
Response: > 100 µM (inactive)

Prompt: # GI50 lookup, item CCOC(=O)C(OP(=O)(OCC)OCC)C(F)(F)F (stereo not drawn)
Response: > 100 µM (inactive)

Prompt: Requested read-out: GI50. Entry: C=C1CCC2C(C)(CO)C(O)CCC2(C)C1C/C=C1\C(=O)OCC1O (stereo not drawn)
Response: 3.24 µM (inactive)

Prompt: What measured GI50 goes with "CCOP(=O)(OCC)c1cc(-c2ccccc2)ccc1N" ?
Response: > 100 µM (inactive)

Prompt: Fill in the blank: the reported GI50 of "CC(C)Oc1cccc(N2C(CCc3c[nH]c4ccc(Br)cc34)=NS(=O)(=O)c3cnccc32)c1" is ____.
Response: 27 µM (inactive)

Prompt: GI50 for Cc1cc(O)c2c(c1)C[C@@H](O)C1=C2C(=O)c2c(O)ccc(OC3CC(O)C(OC4CC(OC5CCC(OC6CC(O)C(OC7CC(OC8CCC(O)C(C)O8)C(O)C(C)O7)C(C)O6)C(C)O5)C(O)C(C)O4)C(C)O3)c2C1=O (stereo partly drawn) ?
Response: 0.0653 µM (active)

* * *

# Test system: UACC-257
# experimentalDetails: NCI tumour cell line growth inhibition, 48 h
Active and inactive are the calls of the source. Rule as the data show it: active = GI50 up to about 1.1 µM and inactive = higher.
Thanks in advance; please answer with one of these: active, inactive

Prompt: What is the recorded call for this molecule in the test? CCCCOC(=O)C1CC[C@H]2[C@@H]3CCc4cc(OC(=O)c5cccc6c(=O)c7ccccc7[nH]c56)ccc4[C@H]3CC[C@]12C (stereo not given in full)
Response: inactive

Prompt: Write down the call the test reported for this molecule. Item: CSC1C(=O)Nc2ccc3ccccc3c21 (stereo not given)
Response: inactive

Prompt: Please let me know the test result on file for "COc1ccc2c(c1)CC1=C(O2)c2ccc(OC)cc2OC1" .
Response: inactive

Prompt: Hi, sorry to bother you, what did the test record for "CC(C)=CCC[C@@H](C)C1=C(O)C(=O)C(C)=C(N[C@H](C)c2ccccc2)C1=O" ?
Response: inactive

Prompt: Look up the recorded call for "O=C1CNS(=O)(=O)N1" in this test.
Response: inactive

Prompt: Would you mind telling me which call this test gave c1ccc(C2=NN(c3ccccc3)C3(S2)SC(c2ccccc2)(c2ccccc2)c2ccccc23)cc1 (stereo not given) ?
Response: inactive

Prompt: Outcome? "O=[N+]([O-])c1ccc2[nH]c(=S)[nH]c(=S)c2c1"
Response: inactive

Prompt: Record request — test call for "Cc1nc2nc3c(ncn3COCCO)c(O)n2c1C(c1ccccc1)(c1ccccc1)c1ccccc1"
Response: inactive

Prompt: Just curious, what result did "Cc1cccc2c(NCCN(C)C)c3cccc(C(=O)NCCN(C)C)c3nc12" get here?
Response: active

Prompt: Given "O=C(NNC(=O)c1ccncc1)C(=O)Nc1cc(Cl)c(Cl)cc1Cl" , state the outcome it received in this test.
Response: inactive

* * *

# Test system: NCI-H23
# experimentalDetails: NCI tumour cell line growth inhibition, 48 h
The source made the active and inactive calls. Cut-off read from the data, not from the text of the source: active = GI50 up to about 1.1 µM and inactive = higher.
parameter: GI50

Prompt: Fill in the blank: the reported GI50 of "O=C(O)c1cc(=O)c2cc(C(=O)c3cccs3)c(Cl)c(Cl)c2o1" is ____.
Response: > 100 µM (inactive)

Prompt: Given the entry "CCN(CC)C(=S)N/N=C(\C)c1ccccc1O" , report its measured GI50.
Response: 25 µM (inactive)

Prompt: Reported GI50, molecule "O=C(Cc1ccccc1)N/N=C/c1ccccc1O" : ____
Response: 17.8 µM (inactive)

Prompt: Which GI50 reading was recorded for the molecule "c1cc2[se][se]c3c4cccc5[se][se]c(c(c1)c23)c54" ?
Response: > 100 µM (inactive)

Prompt: Requested field: GI50. Item: "COc1c(C)c(C/C=C(\C)CCCCO)c(OC)c2ccccc12"
Response: 29.7 µM (inactive)

Prompt: Fill in: GI50 of Nc1ccccc1SC(C[N+](=O)[O-])c1ccc2c(c1)OCO2 (configuration not stated) is ___
Response: 3.08 µM (inactive)

Prompt: Fill blank: measured GI50 of the molecule "O=C(CCCN1CC=C(n2c(=O)[nH]c3ccccc32)CC1)c1cccs1" is ____.
Response: > 100 µM (inactive)

Prompt: # query: GI50 of entry CC#CC(O)(C(=O)OC1CCCN(C)C1)C1=CC=CCC1 (configuration not stated)
Response: > 100 µM (inactive)

Prompt: So what's the measured GI50 for this one? "Cl/C(=N\c1cccc2ccccc12)N(c1ccccc1)c1ccccc1"
Response: > 100 µM (inactive)

Prompt: Requested read-out: GI50. Entry: "N#CC1=CNc2sccc2S1(=O)=O"
Response: > 100 µM (inactive)

Prompt: Record request: GI50 value, item "N=C(N)SCCCN"
Response: 6.1 µM (inactive)

Prompt: Entry CCOC(=O)C1=c2[nH]c3cccc4cccc(c43)n2C(=O)CC1c1ccccc1 (configuration not stated) has what GI50?
Response: > 100 µM (inactive)

* * *

# Test system: DMS-114
# experimentalDetails: NCI tumour cell line growth inhibition, 48 h
The source made the active and inactive calls. Cut-off read from the data, not from the text of the source: active = GI50 up to about 1.1 µM and inactive = higher.
Outcome (select one): class 1 = active, class 0 = inactive

Prompt: Please state the recorded outcome for this molecule: "O=C1[C@@H]2C(c3c(Cl)cccc3Cl)=NO[C@@H]2C(=O)N1c1ccc(Cc2ccc(N3C(=O)[C@H]4C(c5c(Cl)cccc5Cl)=NO[C@H]4C3=O)cc2)cc1"
Response: class 0

Prompt: Call for entry c1ccc(C2=NN(c3ccccc3)C3(S2)SC(c2ccccc2)(c2ccccc2)c2ccccc23)cc1 (stereo not drawn) :
Response: class 0

Prompt: Dear all, I need the recorded test outcome for Cc1cc(O)c2c(c1)C[C@@H](O)C1=C2C(=O)c2c(O)ccc(OC3CC(O)C(OC4CC(OC5CCC(OC6CC(O)C(OC7CC(OC8CCC(O)C(C)O8)C(O)C(C)O7)C(C)O6)C(C)O5)C(O)C(C)O4)C(C)O3)c2C1=O (stereo partly drawn) , thank you.
Response: class 1

Prompt: Hi team, can someone confirm the assay call for "COc1ccccc1NC(=O)C1=C(C)NC(C)=C(C(=O)Nc2ccccc2OC)C1/C=C/c1ccccc1" ?
Response: class 0

Prompt: Fill in: this test's call for COc1ccc(OC)c2c1C(=O)C1CC1(Br)C2=O (stereo not drawn) is ___
Response: class 0

Prompt: Look up the recorded call for N#CC1([N+](=O)[O-])C=C1c1ccccc1 (stereo not drawn) in this test.
Response: class 0

Prompt: Hi, sorry to bother you, what did the test record for "O=C(CC(=O)c1ccccc1)C(=O)Nc1ccc(Cl)cc1" ?
Response: class 0

Prompt: Given NC(=O)c1ncn(C2OC(CO)C(O)C2O)c1O (stereo not drawn) , state the outcome it received in this test.
Response: class 0

* * *

# Test system: HOP-92
# experimentalDetails: NCI tumour cell line growth inhibition, 48 h
The source made the active and inactive calls. Rule as the data show it: active = GI50 up to about 1.1 µM and inactive = higher.
Outcome field: choose from True = active, False = inactive

Prompt: # outcome recorded in this test, key = CC#CC1C2CCCC1(CSc1ccccc1)NC(=O)O2 (stereo not given)
Response: False

Prompt: What did the test return for "O=C(Cc1ccccc1)NN1C(=O)/C(=C\c2ccc([N+](=O)[O-])cc2)S/C1=N\c1ccccc1" ?
Response: False

Prompt: Which outcome did this test record for the compound "O=C1CCCC2=C(N1)C(=O)C=CC2=O" ?
Response: False

Prompt: How did this test come out for COc1cc2c(c(OC)c1OC)-c1cccc(=O)cc1C(NC(C)=O)CC2 (stereo not given) ?
Response: True

Prompt: For "CC(=O)O[C@H]1CC[C@@]2(C)C(=CC[C@H]3[C@@H]4C[C@H](N5CCOCC5)[C@H](OC(C)=O)[C@@]4(C)CC[C@@H]32)C1" , which call appears in the assay record?
Response: False

* * *

# Test system: MOLT-4
# experimentalDetails: NCI tumour cell line growth inhibition, 48 h
The source made the active and inactive calls. No stated cut-off is given here; in the data, active = GI50 up to about 1.1 µM and inactive = higher.
parameter: GI50

Prompt: Quick one: GI50 for COc1cc(C2c3cc4c(cc3[C@@H](Nc3ccc([N+](=O)[O-])cc3)C3COC(=O)[C@H]23)OCO4)cc(OC)c1O (stereo partly specified) ?
Response: 0.0171 µM (active)

Prompt: Data request, read-out GI50, for "c1ccc(/C(=N/Nc2ccncn2)c2ccccn2)cc1"
Response: 3.47 µM (inactive)

Prompt: I have this compound here, "O=C1CNS(=O)(=O)N1" , and I need its recorded GI50.
Response: > 100 µM (inactive)

Prompt: Look at this compound and give its reported GI50. "Nc1nc(N)c(N=O)c(Nc2ccc(I)cc2)n1"
Response: 3.98 µM (inactive)

Prompt: Recorded GI50 of "CSc1ccc(/C=C2/C[N+](C)(C)C/C(=C/c3ccc(SC)cc3)C2=O)cc1" , please.
Response: 5.31 µM (inactive)

Prompt: Quick check: GI50 of CC1C2CC(CC2=O)C1(C)C (stereo unspecified) ?
Response: > 100 µM (inactive)

Prompt: Request the reported GI50 associated with "Cn1nc(-c2ccccc2)c(C(=O)/C=C/c2ccc(F)cc2)c(N2CCCC2)c1=O"
Response: 4.41 µM (inactive)

Prompt: GI50 lookup needed for C=C(Br)C(Cl)(CBr)CCC(Br)C(C)(C)Cl (stereo unspecified) , thanks.
Response: > 10 µM (inactive)

Prompt: Item "CC(=O)O[C@H]1CC[C@@]2(C)C(=CC[C@@H]3[C@@H]2CC[C@]2(C)C(=O)/C(=C\c4ccccc4)C[C@@H]32)C1" has what recorded GI50?
Response: 37.8 µM (inactive)

Prompt: Name the recorded GI50 for c1ccc(C2=NN(c3ccccc3)C3(S2)SC(c2ccccc2)(c2ccccc2)c2ccccc23)cc1 (stereo unspecified) .
Response: > 100 µM (inactive)

Prompt: GI50 for "Cc1c2c(OCCCCN3CCN(c4ncccn4)CC3)nn(C)c(=O)c2c(C)n1-c1ccccc1" ?
Response: 26.8 µM (inactive)

Prompt: Which GI50 value is on record for C=CCC(C(=O)O)c1ccccc1 (stereo unspecified) ?
Response: > 100 µM (inactive)

Prompt: If you can, please state the reported GI50 value of "O=C1C(O)=C(CCCc2ccc(Oc3ccccc3)cc2)C(=O)c2ccccc21" .
Response: 4.19 µM (inactive)

Prompt: Form field: reported GI50 of "Nc1ccc(-c2nc3ccccc3s2)cc1CO"
Response: 16.5 µM (inactive)

Prompt: Looking for the measured GI50 of COc1cccc2c1C(=O)c1c(O)c3c(c(O)c1C2=O)C[C@@](O)(C(C)=O)C[C@@H]3OC1CC(O)C(O)C(C)O1 (stereo partly specified) , can you help?
Response: 0.0208 µM (active)

Prompt: Could you share which GI50 value was measured for COC1(c2ccc(Cl)cc2)SC=C(C)n2c1noc2=O (stereo unspecified) ?
Response: > 100 µM (inactive)
